test: Pharmacokinetics and cerebral blood ratio after single administration in male ICR mice; type: in vivo; conditions: mouse, po, gavage 1 mg/kg, plasma
experimental readout: AUC(0-inf) (ng·h/mL)
Value expressed in ng·h/mL; do not type the unit.

Query: Given `Cc1cc2c(c(C)c1NC(=O)CC(C)(C)C)CCCCN2Cc1ccc(F)cc1` , respond with its AUC(0-inf).
Result: 139

* * *

test: Pharmacokinetics and cerebral blood ratio after single administration in male ICR mice; assay type: in vivo; settings: mouse, intravenous 0.3 mg/kg, plasma
experimental readout: half-life (h)
Report as a plain number; the unit h is understood.

Query: For `Cc1cc2c(c(C)c1NC(=O)CC(C)(C)C)CCCCN2Cc1ccc(F)cc1` , write its half-life.
Result: 5.32

* * *

experiment: Pharmacokinetics and cerebral blood ratio after single administration in male ICR mice; assay type: in vivo; settings: mouse, po, gavage 1 mg/kg, plasma
experimental readout: AUC(0-t)

Query: Provide AUC(0-t) value for the following compound: Cc1cc2c(c(C)c1NC(=O)CC(C)(C)C)CCCCN2Cc1ccc(F)cc1 [Compound A1]
Result: 138 ng·h/mL

* * *

experiment: Pharmacokinetics and cerebral blood ratio after single administration in male ICR mice; assay type: in vivo; settings: mouse, intravenous 0.3 mg/kg, plasma
experimental readout: AUC(0-inf) (µg·h/mL)
A number alone suffices; assume µg·h/mL.

Query: Recall and state the measured AUC(0-inf) for `Cc1cc2c(c(C)c1NC(=O)CC(C)(C)C)CCCCN2Cc1ccc(F)cc1` .
Result: 0.074

* * *

assay: Pharmacokinetics and cerebral blood ratio after single administration in male ICR mice; assay type: in vivo; settings: mouse, brain, single oral 2.5 mg/kg, 2 h
experimental readout: Kp at 2 h
Lab note: jot down the number only; don't add units.

Query: Hello, please tell me recorded Kp at 2 h for this one: `C#CC(C)(C)CC(=O)Nc1c(C)cc2c(c1C)CCCCN2Cc1ccc(F)cc1`
Result: 1.1

* * *

assay: Pharmacokinetics and cerebral blood ratio after single administration in male ICR mice; assay type: in vivo; conditions: mouse, brain, single oral 2.5 mg/kg, 4 h
experimental readout: Kp at 4 h
When you answer, write just the number.

Query: Annotate the compound C#CC(C)(C)CC(=O)Nc1c(C)cc2c(c1C)CCCCN2Cc1ccc(F)cc1 [Compound A4] with its measured Kp at 4 h.
Result: 1.3

* * *

assay: Pharmacokinetics and cerebral blood ratio after single administration in male ICR mice; type: in vivo; settings: mouse, po, gavage 2.5 mg/kg, plasma
experimental readout: Cmax

Query: Provide measured Cmax value, entry: C#CC(C)(C)CC(=O)Nc1c(C)cc2c(c1C)CCCCN2Cc1ccc(F)cc1 [Compound A4]
Result: 257 ng/mL

* * *

assay: Pharmacokinetics and cerebral blood ratio after single administration in male ICR mice; assay type: in vivo; conditions: mouse, intravenous 0.3 mg/kg, plasma
experimental readout: Cmax (ng/mL)
Record the value in ng/mL, omitting the unit from your answer.

Query: Look up and report measured Cmax for this entry: `Cc1cc2c(c(C)c1NC(=O)CC(C)(C)C)CCCCN2Cc1ccc(F)cc1`
Result: 110

* * *

assay: Pharmacokinetics and cerebral blood ratio after single administration in male ICR mice; assay type: in vivo; conditions: mouse, po, gavage 2.5 mg/kg, plasma
Excerpt: […]
experimental readout: AUC(0-t) (ng·h/mL)
API: value field is a number in ng·h/mL; no unit string.

Query: Hello, please tell me recorded AUC(0-t) for this one: `C#CC(C)(C)CC(=O)Nc1c(C)cc2c(c1C)CCCCN2Cc1ccc(F)cc1`
Result: 510

* * *

assay: Pharmacokinetics and cerebral blood ratio after single administration in male ICR mice; type: in vivo; details: mouse, brain, single oral 2.5 mg/kg, 1 h
experimental readout: Kp at 1 h
# answer = number (no unit)

Query: Identify the reported Kp at 1 h for the following entry. `C#CC(C)(C)CC(=O)Nc1c(C)cc2c(c1C)CCCCN2Cc1ccc(F)cc1`
Result: 1.1

* * *

target: KCNQ2 potassium channel (Homo sapiens); construct: expressed in transfected cells; host or cells: CHO (CHO-KCNQ2, kept under G418 selection); assay: Potassium ion channel opener activity test (FDSS/μCELL detection, FluxOR); type: cell-based; conditions: CHO-KCNQ2 cells, fluorescence, FDSS/μCELL; read-out: EC50
experimental readout: pEC50
Just so you know, pEC50 here is -log10 of the concentration in molar units; reply with that number alone.

Query: Indicate its recorded pEC50; the compound in question is C#CC(C)(C)CC(=O)Nc1c(C)cc2c(c1C)CCCCN2Cc1ccc(F)cc1 [Compound A4]
Result: 6.78

Query: Tell me pEC50 reported for CCCC(=O)Nc1c(C)cc2c(c1C)CCCCN2Cc1ccc(F)cc1 [Compound A3]
Result: 6.57

Query: For Cc1cc2c(c(C)c1NC(=O)CC1(C)CC1)CCCCN2Cc1ccc(F)cc1 [Compound A5] , write its pEC50.
Result: 6.88

* * *

biological target: KCNQ2 potassium channel (Homo sapiens, UniProt O43526); construct: expressed in transfected cells; host or cells: CHO (CHO-KCNQ2, kept under G418 selection); assay: Potassium ion channel opener activity test (FDSS/μCELL detection, FluxOR); assay type: cell-based
// NB: equality with 50 nM counts as FALSE; only EC50 strictly below is TRUE

Query: Is the reported EC50 for Cc1cc2c(c(C)c1NC(=O)CC(C)(C)C)CCCCN2Cc1ccc(F)s1 [Compound A7] strictly below 50 nM?
Result: TRUE

Query: Bench note: check whether Cc1cc2c(c(C)c1NC(=O)CCC1CCCC1)CCCCN2Cc1ccc(F)cc1 [Compound A2] shows EC50 below 50 nM
Result: TRUE

Query: Is the reported EC50 for Cc1cc2c(c(C)c1NC(=O)CC(C)(C)C)CCCCN2Cc1ccc(Cl)s1 [Compound A6] strictly below 50 nM?
Result: TRUE

Query: Is 50 nM strictly greater than the compound's reported EC50? compound: Cc1cc2c(c(C)c1NC(=O)CCC1CCCC1)CCCCN2Cc1ccc(F)s1 [Compound A8]
Result: TRUE

Query: is_below(EC50, 50 nM) for Cc1cc2c(c(C)c1NC(=O)CC(C)(C)C)CCCCN2Cc1ccc(F)cc1 [Compound A1] ?
Result: FALSE

* * *

assay: Pharmacokinetics and cerebral blood ratio after single administration in male ICR mice; assay type: in vivo; conditions: mouse, intravenous 0.5 mg/kg, plasma
experimental readout: AUC(0-t) (ng·h/mL)
Answer with a number only, understood to be in ng·h/mL.

Query: Fill in AUC(0-t) for record `C#CC(C)(C)CC(=O)Nc1c(C)cc2c(c1C)CCCCN2Cc1ccc(F)cc1`
Result: 235

* * *

assay: Pharmacokinetics and cerebral blood ratio after single administration in male ICR mice; assay type: in vivo; details: mouse, po, gavage 1 mg/kg, plasma
experimental readout: Cmax (ng/mL)
Value expressed in ng/mL; do not type the unit.

Query: Output Cmax of `Cc1cc2c(c(C)c1NC(=O)CC(C)(C)C)CCCCN2Cc1ccc(F)cc1`
Result: 94.4

* * *

experiment: Pharmacokinetics and cerebral blood ratio after single administration in male ICR mice; assay type: in vivo; conditions: mouse, intravenous 0.5 mg/kg, plasma
Text: […]
experimental readout: Cmax (ng/mL)
Lab book: enter the figure in ng/mL, no units written.

Query: Give the reported value of Cmax for this record: `C#CC(C)(C)CC(=O)Nc1c(C)cc2c(c1C)CCCCN2Cc1ccc(F)cc1`
Result: 294

* * *

tested on: SD rats; assay: Safety research: single tail vein injection toxicity, maximum tolerated dose; assay type: in vivo; settings: male SD rats, observed 48 hours
experimental readout: Maximum tolerated dose

Examples with their reported Maximum tolerated dose follow.
>>> print(df.to_string())
                            chemical_smiles  measured_result
0  Cc1cc2c(c(C)c1NC(=O)CC(C)(C)C)CCCCN2Cc1ccc(F)cc1    MTD > 1 mg/kg
1  Cc1cc2c(c(C)c1NC(=O)CC(C)(C)C)CCCCN2Cc1ccc(Cl)s1    MTD > 1 mg/kg
2  Cc1cc2c(c(C)c1NC(=O)CC(C)(C)C)CCCCN2Cc1ccc(F)s1    MTD > 1 mg/kg
3  Cc1cc2c(c(C)c1NC(=O)CCC1CCCC1)CCCCN2Cc1ccc(F)s1    MTD > 1 mg/kg

Could you now look at the following compound, please?
Query: Tell me measured Maximum tolerated dose for `Cc1cc2c(c(C)c1NC(=O)CCC1CCCC1)CCCCN2Cc1ccc(F)cc1` please.
Result: MTD > 1 mg/kg

* * *

Record form. Attribute: MTD at 48 h. Fill in for each entry.
test: Safety research: single tail vein injection toxicity, maximum tolerated dose; type: in vivo; settings: rat, in vivo, male SD rats, observed 48 hours

Query: For the compound Cc1cc2c(c(C)c1NC(=O)CC(C)(C)C)CCN2Cc1ccc(F)cc1 [Compound B2, reference compound] , give its reported MTD at 48 h.
Result: 0.3 to 1 mg/kg

Query: Kindly indicate its recorded MTD at 48 h. Item: Cc1cc2c(c(C)c1NC(=O)CC(C)(C)C)CCCN2Cc1ccc(F)cc1 [Compound B1, reference compound]
Result: 0.06 to 0.3 mg/kg
